Catalogue of compounds with associated IC50
system: Plasmodium falciparum; assay: microbe, parasite or virus in culture; details: NF54
Description: Antimalarial activity against drug-sensitive Plasmodium falciparum NF54
observed_property: IC50 (nM)

compound_structure | comparator | readout_value
CS(=O)(=O)c1ccc(-c2ccc3ncc(-c4ccc(S(C)(=O)=O)cc4)n3n2)cc1 | = | 706
CS(=O)(=O)c1ccc(-c2cnc3ccc(-c4ccc(C(F)(F)F)cc4)nn23)cc1 | = | 189
c1cc(-c2ccc3ncc(-c4ccncc4)n3n2)c2ccncc2c1 | = | 223
C1=C(c2ccc3ncc(-c4ccncc4)n3n2)Cc2nonc2C1 | > | 3180
CS(=O)(=O)c1ccc(-c2cnc3ccc(-c4ccc(F)c(Cl)c4)nn23)cc1 | = | 179
O=S(=O)(c1ccc(-c2ccc3ncc(-c4ccncc4)n3n2)cc1)N1CCOCC1 | = | 2240
Fc1ccc(-c2ccc3ncc(-c4ccncc4)n3n2)cc1F | = | 496
CS(=O)(=O)c1ccc(-c2cnc3ccc(-c4cccc(C(=O)NCCO)c4)nn23)cc1 | = | 99
O=C(c1ccc(-c2ccc3ncc(-c4ccc(C(F)(F)F)cc4)n3n2)cc1)N1CCOCC1 | = | 763
Cc1ccc(-c2ccc3ncc(-c4ccc(S(C)(=O)=O)cc4)n3n2)cc1C(F)(F)F | = | 32

====

assay: Apparent half life in Sprague-Dawley rat at 3.6 mg/ml, po; type: ADME, organism-based; conditions: in vivo, read-out: t1/2(app) (converted)

compound_structure | half-life, h
CS(=O)(=O)c1ccc(-c2cnc3ccc(-c4cccc(S(C)(=O)=O)c4)nn23)cc1 | 7.08

====

system: Plasmodium falciparum; assay: microbe, parasite or virus in culture; conditions: K1
Description: Antimalarial activity against multidrug-resistant Plasmodium falciparum K1
pIC50: −log10 of the molar value.
Hi all, reminder that labels come from pIC50, split as group 1: < 6; group 2: ≥ 6 and < 7; group 3: ≥ 7

compound | test_system | classification
CS(=O)(=O)c1ccc(-c2cnc3ccc(-c4cccc(C(F)(F)F)c4)nn23)cc1 | Plasmodium falciparum | group 3
c1cc(-c2cnc3ccc(-c4ccc(N5CCOCC5)cc4)nn23)ccn1 | Plasmodium falciparum | group 1
CS(=O)(=O)c1cccc(-c2ccc3ncc(-c4ccncc4)n3n2)c1 | Plasmodium falciparum | group 3
CN(C)S(=O)(=O)c1ccc(-c2ccc3ncc(-c4ccc(S(=O)(=O)N(C)C)cc4)n3n2)cc1 | Plasmodium falciparum | group 1
C[C@H]1[C@H](OC(=O)CCC(=O)O)O[C@@H]2O[C@@]3(C)CC[C@H]4[C@H](C)CC[C@@H]1[C@@]24OO3 [ARTESUNATE] | Plasmodium falciparum | group 3
Fc1ccc(-c2ccc3ncc(-c4ccncc4)n3n2)cc1F | Plasmodium falciparum | group 2
Cc1ccc(-c2ccc3ncc(-c4ccc(S(C)(=O)=O)cc4)n3n2)cc1C(F)(F)F | Plasmodium falciparum | group 3
NCc1ccc(-c2ccc3ncc(-c4ccncc4)n3n2)cc1 | Plasmodium falciparum | group 2
c1cnc2c(-c3ccc4ncc(-c5ccncc5)n4n3)cccc2c1 | Plasmodium falciparum | group 1
Fc1cccc(-c2ccc3ncc(-c4ccncc4)n3n2)c1 | Plasmodium falciparum | group 2

====

experiment: Plasma total clearance in Sprague-Dawley rat at 3.6 mg/ml, iv; assay type: ADME, organism-based
observed_property: clearance (mL/min/kg)

compound_structure | readout_value
CS(=O)(=O)c1ccc(-c2cnc3ccc(-c4cccc(S(C)(=O)=O)c4)nn23)cc1 | 5.77

====

experiment: Volume of distribution at steady state in Sprague-Dawley rat at 3.6 mg/ml, iv; assay type: ADME, organism-based; conditions: in vivo, read-out: Vdss

compound_structure | Vd (L/kg)
CS(=O)(=O)c1ccc(-c2cnc3ccc(-c4cccc(S(C)(=O)=O)c4)nn23)cc1 | 3.01
